Measured values drawn from patent EP0714912B1 for this set.

Tested on: immobilized GMP-140
Test: ELISA (avidin detection) of binding of biotinylated monoclonal antibodies G1, G2, G3 to immobilized GMP-140 in presence of soluble peptide
Design: species or system human
Settings: peptide 1.5 mM added to biotinylated mAb G1 (2.5 micrograms/ml) before addition to immobilized GMP-140
observed.property: % Binding of Biotinylated MAbs G1 (%)
Report the figure in % without appending any unit label.

Q: Form field: reported % Binding of Biotinylated MAbs G1 of LECTIN 73-89: synthetic peptide, amino acids 73-89 of the lectin domain of GMP-140 (AENWADNEPNNKRNNED; UniProt P16109 114-130, looked up, fragment)
A: 95

Q: // same read-out, input: EGF 134-141: synthetic peptide, amino acids 134-141 of the EGF domain of GMP-140 (LETIGNYT; UniProt P16109 175-182, looked up, fragment)
A: 97

Q: // same read-out, input: LECTIN 19-34: synthetic peptide, amino acids 19-34 of the lectin domain of GMP-140 (CQNRYTDLVAIQNKNE; UniProt P16109 60-75, looked up, fragment)
A: 23

Q: // same read-out, input: C-TERMINUS 761-777: C-terminal peptide (amino acid residues 761-777 of GMP-140) as a negative control (KDDGKCPLNPHSHLGTY; UniProt P16109 802-818, looked up, fragment) [reference compound]
A: 100
